Source of measurements: PubChem BioAssay (NCI)

System: SF-295 CNS
protocol: NCI tumour cell line growth inhibition, 48 h; in the data active = GI50 below about 0.43 µM; inactive = the rest
Write down the outcome that applies. Available outcomes: active, inactive

Answered cases to consult:
Q: Which result was noted for this molecule in the test: C[C@H](NC(=O)CCC(F)(F)F)C(=O)N[C@@H]1C(=O)N(CCO)c2ncccc2-c2ccccc21
A: inactive

Q: Which result was noted for this molecule in the test: Nc1ccc2c(c1)CN1C(=O)c3ccccc3C1=N2
A: inactive

Q: Which result was noted for this molecule in the test: CC(C)(C)c1ccc(S(=O)(=O)N[C@H]2CC[C@H]3[C@@H]4CCc5cc(O)ccc5[C@H]4CC[C@]23C)cc1
A: inactive

Q: Which result was noted for this molecule in the test: COc1ccc(N=C2NN=C(c3c[nH]c4ccccc34)CS2)cc1OC
A: inactive

Q: Which result was noted for this molecule in the test: CC(=O)Nc1ccc(-n2cnc3cc(-c4ccc(OCCN5CCCCC5)cc4)ccc32)cc1
A: inactive

Next:
Q: Which result was noted for this molecule in the test: Cc1cc2c(cc1Cl)SC1=NN(C)C(c3ccccc3O)N1S2(=O)=O (centres undefined)
A: inactive

* * *

Test system: CAKI-1 renal
protocol: NCI tumour cell line growth inhibition, 48 h
Where a SMILES comes first, the peptide text is derived from it. The star is where a group is joined. Palmitoyl = CCCCCCCCCCCCCCCC(=O)*
result_type: GI50

Q: Request - read-out GI50 | tested on CAKI-1 renal | molecule CCCCCCCCCCCCCCCC(=O)NC(CCCCN)C(=O)NCC(=O)NC(Cc1ccccc1)C(=O)N1CCCC1C(=O)NC(CO)C(=O)NC(Cc1ccc(O)cc1)C(=O)NC(CCCCN)C(=O)NC(CC(C)C)C(=O)NC(CCCN=C(N)N)C(=O)N1CCCC1C(=O)NCC(N)=O (stereo not drawn) (Palmitoyl-KGFPSYKLRPG-NH2; configuration not given here)
A: 16.4 µM

Q: Request - read-out GI50 | tested on CAKI-1 renal | molecule CC(=O)Nc1ccc(-n2cnc3cc(-c4ccc(OCCN5CCCCC5)cc4)ccc32)cc1
A: 6.01 µM

Q: Request - read-out GI50 | tested on CAKI-1 renal | molecule O=c1[nH]c2cc(O)ccc2n2cc3c(F)cccc3c12
A: 0.903 µM

Q: Request - read-out GI50 | tested on CAKI-1 renal | molecule C#Cc1ccc(-n2c(/C=C/c3cc(OC)c(OC)c(OC)c3)nc3ncccc3c2=O)cc1
A: 6.07 µM

Next:
Q: Request - read-out GI50 | tested on CAKI-1 renal | molecule O=C(Nc1ccccc1)Nc1ccccc1CNc1nc(Nc2ccc(OCCN3CCCC3)cc2)ncc1Cl
A: 6.1 µM

Q: Request - read-out GI50 | tested on CAKI-1 renal | molecule Cc1csc(Nc2nc(-c3cccc(Cl)c3)nc(C(Cl)(Cl)Cl)n2)n1
A: 3.07 µM

Q: Request - read-out GI50 | tested on CAKI-1 renal | molecule COC1C(CO)OC(n2c3ccccc3c3c4c(c5c6ccccc6[nH]c5c32)C(=O)NC4=O)C(O)C1OC(=O)C(N)CCCCN (stereo not drawn)
A: 1.21 µM

Q: Request - read-out GI50 | tested on CAKI-1 renal | molecule CCOc1cccnc1/C=N/NC(N)=S
A: 3.51 µM

* * *

Reported TGI values for a set of molecules
System: UACC-257 melanoma
protocol: NCI tumour cell line growth inhibition, 48 h

Study these solved cases before continuing.
Q: Request - read-out TGI | tested on UACC-257 melanoma | molecule CN1C(=O)[C@@]2(C=CC3(CC2)OCCO3)c2ccccc21
A: > 50 µM

Q: Request - read-out TGI | tested on UACC-257 melanoma | molecule O=C1/C(=C/c2ccccc2)CN(C(=O)Oc2ccc([N+](=O)[O-])cc2)C/C1=C\c1ccccc1
A: 8.79 µM

Q: Request - read-out TGI | tested on UACC-257 melanoma | molecule O=[N+]([O-])c1cccc(-c2ncc(-c3ccc(Cl)cc3Cl)[nH]2)c1
A: 29 µM

Next:
Q: Request - read-out TGI | tested on UACC-257 melanoma | molecule CN1CC(C(=O)NC2(C)OC3(O)C4CCCN4C(=O)C(Cc4ccccc4)N3C2=O)C=C2c3cccc4[nH]cc(c34)CC21 (stereo unspecified)
A: 29.8 µM

Q: Request - read-out TGI | tested on UACC-257 melanoma | molecule COc1cc2c(cc1OC)C1Cc3ccccc3CN1CCC2 (stereo unspecified)
A: > 100 µM

Q: Request - read-out TGI | tested on UACC-257 melanoma | molecule CC(=O)c1nccc2c1c(C)nc1ccccc12
A: > 100 µM

Q: Request - read-out TGI | tested on UACC-257 melanoma | molecule CCCCCCCCCCCCCCCC(=O)OCC1OC(n2ccc(N)nc2=O)C(O)C1O (stereo unspecified)
A: > 100 µM

Q: Request - read-out TGI | tested on UACC-257 melanoma | molecule N#Cc1ccc(N2Cc3cc(Cl)ccc3OC3=C2C(=O)N(Cc2ccccc2)C3=O)cc1
A: 2.85 µM

Q: Request - read-out TGI | tested on UACC-257 melanoma | molecule Nc1ncnc2c1ncn2Cc1ccc(C23CC4CC(CC(C4)C2)C3)c(O)c1
A: 61.2 µM

* * *

Reported TGI values for a set of molecules
Test system: 786-0 renal
protocol: NCI tumour cell line growth inhibition, 48 h
Entry rule: numbers only, all in µM.

Study these solved cases before continuing.
Q: Requested field: TGI. Item: CCN(CC)CCOc1ccc(C2=C(c3ccccc3)CCc3cc(OC)ccc32)cc1
A: 2.88

Q: Requested field: TGI. Item: C/C(=N\O)c1ccc(Nc2c3ccccc3nc3occc23)cc1
A: 3.3

Q: Requested field: TGI. Item: N#Cc1nnc2c3c(-c4ccc(Cl)cc4)c(C#N)c(=O)[nH]c3nn2c1N
A: 18.2

Q: Requested field: TGI. Item: CCCCCCCCC(=O)NCCCNCCCNC(=O)CCCCCCCC
A: 3.52

Next:
Q: Requested field: TGI. Item: COc1cc(O)c2c(c1)C(O)C(O)CC1OC1C(=O)/C=C/CC(C)OC2=O (stereo unspecified)
A: 13.8

* * *

System: COLO 205 colon
protocol: NCI tumour cell line growth inhibition, 48 h
Reported TGI values for a set of compounds

Q: Request - read-out TGI | tested on COLO 205 colon | compound O=C1N2CCc3c([nH]c4ccccc34)C23CC2CCCC12S3 (stereo unspecified)
A: > 50 µM

Next:
Q: Request - read-out TGI | tested on COLO 205 colon | compound C[C@H](NC(=O)CCC(F)(F)F)C(=O)N[C@@H]1C(=O)N(CCO)c2ncccc2-c2ccccc21
A: > 100 µM

Q: Request - read-out TGI | tested on COLO 205 colon | compound COc1cc(/C=C2\C[C@H]3[C@@H]4CC=C5C[C@@H](N6CCCC6)CC[C@]5(C)[C@H]4CC[C@]3(C)[C@H]2OC(C)=O)cc(OC)c1OC
A: 25.6 µM

Q: Request - read-out TGI | tested on COLO 205 colon | compound CC(C)(C)c1ccc(S(=O)(=O)N[C@H]2CC[C@H]3[C@@H]4CCc5cc(O)ccc5[C@H]4CC[C@]23C)cc1
A: 3.3 µM

Q: Request - read-out TGI | tested on COLO 205 colon | compound CC1(C)CC2(C)OC2C2(C1)N=NC(=Nc1ccccc1)O2 (stereo unspecified)
A: 24.9 µM

Q: Request - read-out TGI | tested on COLO 205 colon | compound O=C1c2cccc3cccc(c23)C(=O)N1CCCN1CCN(CCCN2C(=O)c3cccc4cccc(c34)C2=O)CC1
A: > 100 µM

Q: Request - read-out TGI | tested on COLO 205 colon | compound CSc1nc2c(ncn2C2OCC(O)C(O)C2O)c(=O)[nH]1 (stereo unspecified)
A: > 100 µM

* * *

Tested on: HT29 colon
protocol: NCI tumour cell line growth inhibition, 48 h
result_type: TGI (µM)
Entry rule: numbers only, all in µM.

Study these solved cases before continuing.
Q: Requested field: TGI. Item: CCN(CC)CCOc1ccc(C2=C(c3ccccc3)CCc3cc(OC)ccc32)cc1
A: 1.87

Q: Requested field: TGI. Item: O=C(Nc1ccccc1)N1N=C(c2ccccc2)C1c1ccccc1 (stereo not given)
A: 39.8

Q: Requested field: TGI. Item: CCNC(=O)Oc1ccc(/C(=C(\C)c2ccc(Cl)cc2)c2ccc(OCCN3CCCCC3)cc2)cc1
A: 10.9

Q: Requested field: TGI. Item: CCCCCCCCCCCCNC(=O)[C@H]1CSC(c2ccc(OC)c(F)c2)N1 (stereo not given in full)
A: 2.42

Q: Requested field: TGI. Item: N#Cc1ccc(N2Cc3cc(Cl)ccc3OC3=C2C(=O)N(Cc2ccccc2)C3=O)cc1
A: 3.96

Next:
Q: Requested field: TGI. Item: COCCCN1C(=O)C2c3[nH]c4ccccc4c3C3CCC(C(C)(C)C)CC3C2C1=O (stereo not given)
A: 34

Q: Requested field: TGI. Item: O=C(O)c1ccc(Nc2cnc3ccc(C(F)(F)F)cc3n2)cc1
A: 33.6
